# EXPERIMENT DESCRIPTION: Stability in human plasma
# Assay type: in vitro ADME
# TEST CONDITIONS: Diastereoisomer B, 37° C., up to 60 min, read-out: t1/2 (h) Human Plasma Diastereoisomer B (converted)
MEASURED PARAMETER: half-life at 3 μM (h)
Give bare numbers, in h.

Report half-life at 3 μM for CC(=O)SCCNC(=O)CCNC(=O)[C@@H]1OP(=O)(N[C@@H](C)C(=O)OCCc2ccccc2)OCC1(C)C (stereo partly shown) please. 0.36

###

# EXPERIMENT DESCRIPTION: Stability in human whole blood
# Format: in vitro ADME
# TEST CONDITIONS: Diastereoisomer A (upfield shift in 31P NMR), 37° C., up to 60 min, read-out: t1/2 (h) Human Whole Blood Diastereoisomer A (converted)
# Procedure: The stability of selected compounds in human whole blood was evaluated according to the following protocol. Compounds and positive control samples were dissolved in 100% DMSO at 3 mM (stock solution). […] Stability was determined based on analysis of disappearance of the compounds as a function of incubation time. Quantification of test compounds was measured as a peak area relative to an internal standard. The elimination constant k and half-life (t1/2) were determined as described above in Example 7.
MEASURED PARAMETER: half-life at 3 μM (h)
One number for each entry, in h.

Examples from the recorded data:
Entry CC(=O)SCCNC(=O)CCNC(=O)[C@@H]1OP(=O)(OCOC(=O)N[C@@H](CSC(=O)C(C)(C)C)C(=O)O)OCC1(C)C (stereo partly shown) has what half-life at 3 μM? 0.78

Which half-life at 3 μM is reported for this compound? CC(=O)SCCNC(=O)CCNC(=O)[C@@H]1OP(=O)(OCOC(=O)c2scnc2C)OCC1(C)C (stereo partly shown) 0.37

Respectfully, I request half-life at 3 μM for each entry included below.
1. CC(=O)SCCNC(=O)CCNC(=O)[C@@H]1OP(=O)(OCOC(=O)c2cc(C)nn2C)OCC1(C)C (stereo partly shown)
2. CC(=O)SCCNC(=O)CCNC(=O)[C@@H]1OP(=O)(OCOC(=O)NCCSC(=O)C(C)(C)C)OCC1(C)C (stereo partly shown)

1: 0.34; 2: 0.31

Please go through the list and note half-life at 3 μM for each compound.
1. COC(=O)[C@H](CSC(=O)C(C)(C)C)NC(=O)OCOP1(=O)OCC(C)(C)[C@H](C(=O)NCCC(=O)NCCSC(C)=O)O1 (stereo partly shown)
2. CC(=O)SCCNC(=O)CCNC(=O)[C@@H]1OP(=O)(OCOC(=O)NCCSC(=O)[C@@H](N)C(C)C)OCC1(C)C (stereo partly shown)

0.65
0.32
